- System: sera from patients infected with group O HIV-1 retroviruses
- assay_remarks: Immunoenzymatic test: Test No. 1 (immunoreactivity of peptides coated on microplates)
- Type: binding, human
- recorded_conditions: serum 5453; cyclized peptide 2 μg/ml
No end group written: not given here.
value_type: ABSORBANCE
Numbers only.

I need ABSORBANCE for every entry listed below, if you could help.
1. LLNLWGCKNRAICYTSVKWNKT (cysteine pairing not given here) [VAU 22 AA, reference compound]
2. RLLALETFIEENELLNLWGCKNRAICYTSVKWNKT (cysteine pairing not given here) [VAU 35 AA, reference compound]
3. LLSSWGCKGRLVCYTSVQWNET [PEPTIDE No. 3 (4B)]
4. LLSLWGCRGRLVCYTSVQWNET [PEPTIDE No. 2 (3B)]

(A)
1: 1.267; 2: 1.482; 3: 0.555; 4: 0.081

###

- Test system: serum samples from patients infected with group O HIV-1 retroviruses
- assay_remarks: Immunoenzymatic test: Test No. 2 (immunoreactivity with diluted sera)
- Format: binding, human
- recorded_conditions: serum 258 OUDI at 1/100; solid phase peptide 2 μg/ml, cyclized
- Excerpt: The serum samples from patients infected with group O HIV-1 retroviruses were obtained by the Yaounde Pasteur Centre in Cameroon and were serotyped group O according to the serological algorithm described in AIDS (1977), 11, pp. 445-453. A genotyped sample (Maryland) is obtained from the United States. […] The relative absorbance (OD) (A490-A620) read in each well is proportional to the immunoreactivity of each peptide. […]
No end group written: not given here.
For each record, write down the corresponding ABSORBANCE (OD).
Numbers only.

Some solved entries appear below for comparison.
entry_sequence	reported_result
RLQALETLIQNQQRLNLWGCKGKLICYTSVKWNTS (cysteine pairing not given here) [MVP 5180, reference compound]	0.116
ALETLLQNQQLLNSWGCRGRLVCYTSVRWNET [PEPTIDE No. 11 (18B)]	0.373
RLLALETFIEENELLNLWGCKNRAICYTSVKWNKT (cysteine pairing not given here) [VAU 35 AA, reference compound]	0.058

I need ABSORBANCE (OD) for every entry listed below, if you could help.
1. LLNLWGCKNRAICYTSVKWNKT (cysteine pairing not given here) [VAU 22 AA, reference compound]
2. RALETLLNQQRLLNSWGCKGRLVCYTSV [PEPTIDE No. 15 (22B)]
3. LLNSWGCKGRLVCYTS [PEPTIDE No. 10 (14B)]
4. ALETLLQNQQLLNIWGCRGRLVCYTSVRWNET [PEPTIDE No. 12 (19B)]
5. LNQQRLLNSWGCKGRLVCYTSV [PEPTIDE No. 14 (21B)]
6. RLNSWGCKGRLVCYTSV [PEPTIDE No. 16 (23B)]

(A)
1. 0.100
2. 1.184
3. 0.587
4. 0.226
5. 0.764
6. 1.692

###

- System: serum samples from patients infected with group O HIV-1 retroviruses
- assay_remarks: Immunoenzymatic test: Test No. 2 (immunoreactivity with diluted sera)
- Assay type: binding, human
- recorded_conditions: serum Maryland at ¼00; solid phase peptide 2 μg/ml, cyclized
No end group written: not given here.
value_type: ABSORBANCE (OD)
One number for each entry.

entry_sequence	value_type	reported_result
RALETLLNQQRLLNSWGCKGRLVCYTSV [PEPTIDE No. 15 (22B)]	ABSORBANCE (OD)	0.844

I need ABSORBANCE (OD) for every entry listed below, if you could help.
1. ALETLLQNQQLLNIWGCRGRLVCYTSVRWNET [PEPTIDE No. 12 (19B)]
2. RLNSWGCKGRLVCYTSV [PEPTIDE No. 16 (23B)]
3. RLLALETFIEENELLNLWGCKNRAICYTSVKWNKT (cysteine pairing not given here) [VAU 35 AA, reference compound]
4. ALETLLQNQQLLNSWGCRGRLVCYTSVRWNET [PEPTIDE No. 11 (18B)]
5. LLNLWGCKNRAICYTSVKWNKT (cysteine pairing not given here) [VAU 22 AA, reference compound]

(A)
1. 0.285
2. 1.229
3. 0.054
4. 0.370
5. 0.168

I need ABSORBANCE (OD) for every entry listed below, if you could help.
1. LNQQRLLNSWGCKGRLVCYTSV [PEPTIDE No. 14 (21B)]
2. RLQALETLIQNQQRLNLWGCKGKLICYTSVKWNTS (cysteine pairing not given here) [MVP 5180, reference compound]
3. LLNSWGCKGRLVCYTS [PEPTIDE No. 10 (14B)]

(A)
0.734
0.241
0.524

###

- Test system: sera from patients infected with group O HIV-1 retroviruses
- assay_remarks: Immunoenzymatic test: Test No. 1 (immunoreactivity of peptides coated on microplates)
- Assay type: binding, human
- recorded_conditions: serum 3136; cyclized peptide 2 μg/ml
- Protocol: The sera used ESS, DUR, VAU and HAD are sera from French patients infected with group O HIV-1 retroviruses. […] After washing with a Tris-NaCl buffer solution pH 7.4 containing 0.1% of Tween® 20 and 0.001% of sodium merthiolate, the colour was developed by adding, to each well, 100 μl of O-phenylenediamine in solution in hydrogen peroxide. […] The absorbance (A) was determined at 490 and 620 nm. The relative absorbance (A490-A620) read in each well is proportional to the immunoreactivity of each peptide. […]
For each record, write down the corresponding ABSORBANCE.
One number for each entry.

entry_sequence	ABSORBANCE
LLSLWGCRGRLVCYTSVQWNET [PEPTIDE No. 2 (3B)]	0.992

Let us move to another entry and its ABSORBANCE.
(Q) Using the record for LLSLWGCRGKAVCYTSVQWNET [PEPTIDE No. 1 (2B)] , report its ABSORBANCE.
(A) 0.302

###

- System: sera from patients infected with group O HIV-1 retroviruses
- assay_remarks: Immunoenzymatic test: Test No. 1 (immunoreactivity of peptides coated on microplates)
- Type: binding, human
- recorded_conditions: serum 3653; cyclized peptide 2 μg/ml
No end group written: not given here.
value_type: ABSORBANCE

Some solved entries appear below for comparison.
entry_sequence	target_entity	ABSORBANCE
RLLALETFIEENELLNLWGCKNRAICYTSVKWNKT (cysteine pairing not given here) [VAU 35 AA, reference compound]	sera from patients infected with group O HIV-1 retroviruses	1.322
LLSLWGCRGKAVCYTSVQWNET [PEPTIDE No. 1 (2B)]	sera from patients infected with group O HIV-1 retroviruses	0.044
LLSSWGCKGRLVCYTSVQWNET [PEPTIDE No. 3 (4B)]	sera from patients infected with group O HIV-1 retroviruses	1.352
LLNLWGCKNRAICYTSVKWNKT (cysteine pairing not given here) [VAU 22 AA, reference compound]	sera from patients infected with group O HIV-1 retroviruses	1.441

Let us move to another entry and its ABSORBANCE.
(Q) Identify the measured ABSORBANCE of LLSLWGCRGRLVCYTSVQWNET [PEPTIDE No. 2 (3B)] for sera from patients infected with group O HIV-1 retroviruses.
(A) >

###

- Test system: sera from patients infected with group O HIV-1 retroviruses
- assay_remarks: Immunoenzymatic test: Test No. 1 (immunoreactivity of peptides coated on microplates)
- Format: binding, human
- recorded_conditions: serum 3935; cyclized peptide 2 μg/ml
No end group written: not given here.
value_type: ABSORBANCE
Give bare numbers.

Some solved entries appear below for comparison.
entry_sequence	ABSORBANCE
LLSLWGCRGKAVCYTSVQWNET [PEPTIDE No. 1 (2B)]	0.307
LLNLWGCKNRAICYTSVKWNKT (cysteine pairing not given here) [VAU 22 AA, reference compound]	0.138
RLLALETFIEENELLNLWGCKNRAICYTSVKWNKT (cysteine pairing not given here) [VAU 35 AA, reference compound]	0.227

(Q) Using the record for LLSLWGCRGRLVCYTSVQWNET [PEPTIDE No. 2 (3B)] , report its ABSORBANCE.
(A) 0.893

###

- Tested on: sera from patients infected with group O HIV-1 retroviruses
- assay_remarks: Immunoenzymatic test: Test No. 1 (immunoreactivity of peptides coated on microplates)
- Type: binding, human
- Parameters: key: >: signal greater than the reading capacity of the spectrophotometer
- recorded_conditions: serum 625; cyclized peptide 2 μg/ml
No end group written: not given here.
value_type: ABSORBANCE

Some solved entries appear below for comparison.
entry_sequence	ABSORBANCE
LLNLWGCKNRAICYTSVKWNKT (cysteine pairing not given here) [VAU 22 AA, reference compound]	>
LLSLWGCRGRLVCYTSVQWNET [PEPTIDE No. 2 (3B)]	>
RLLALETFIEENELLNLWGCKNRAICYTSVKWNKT (cysteine pairing not given here) [VAU 35 AA, reference compound]	2.585
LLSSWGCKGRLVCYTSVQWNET [PEPTIDE No. 3 (4B)]	>

Let us move to another entry and its ABSORBANCE.
(Q) Identify the measured ABSORBANCE of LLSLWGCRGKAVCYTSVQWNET [PEPTIDE No. 1 (2B)] for sera from patients infected with group O HIV-1 retroviruses.
(A) >
